System Name: T1, human angiopoietin-2 protein (human, UniProt O15123 19-496)
T1 construct: bought; also called Ang-2; Ang2
T1 sequence (looked up): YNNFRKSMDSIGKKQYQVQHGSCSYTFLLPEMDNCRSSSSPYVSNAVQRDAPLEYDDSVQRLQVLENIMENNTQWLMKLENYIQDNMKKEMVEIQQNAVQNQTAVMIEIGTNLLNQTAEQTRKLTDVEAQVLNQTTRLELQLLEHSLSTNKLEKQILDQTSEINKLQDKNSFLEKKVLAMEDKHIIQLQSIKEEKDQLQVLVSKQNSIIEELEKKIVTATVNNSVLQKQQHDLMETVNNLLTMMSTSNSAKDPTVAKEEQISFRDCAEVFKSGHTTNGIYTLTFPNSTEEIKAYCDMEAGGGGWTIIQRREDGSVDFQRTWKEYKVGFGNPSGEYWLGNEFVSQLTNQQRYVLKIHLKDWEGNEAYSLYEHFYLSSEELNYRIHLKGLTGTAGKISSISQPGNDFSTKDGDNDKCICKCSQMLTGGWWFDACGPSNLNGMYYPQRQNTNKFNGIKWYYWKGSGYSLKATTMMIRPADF
Protocol Description: competitive ELISA, coated Ang-2, 0.25 nM hTie-2-Fc; T form
Non-standard residues stand in square brackets, D forms with d. Bpa = N[C@@H](Cc1ccc(C(=O)c2ccccc2)cc1)C(=O)O; 0P linker = not defined here; acyl = not defined here
Examples of binders with documented IC50 follow.
Readout Type: IC50 (nM)

* QXYQPLDELDXTLYDQFMLQQG (not fully specified; N-term acyl cap; C-term NH2 cap; AcK at 2; 0P linker on K11) [Compound 29 (T): targeting peptide plus 0P linker] | 83.3
* acyl-QNYQPLDELDK(0P linker)TL[Bpa]DQFMLQQG-NH2 (reading uncertain; also: printed as QNY QPL DEL DK(0P)T L(BPA)D QFM LQQ G) [Compound 56 (T): targeting peptide plus 0P linker] | 92.2
* QXYQPLDELDXTIYDQFMLQQG (not fully specified; N-term acyl cap; C-term NH2 cap; AcK at 2; 0P linker on K11) [Compound 36 (T): targeting peptide plus 0P linker] | 2410
* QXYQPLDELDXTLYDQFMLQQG (N-term acyl cap; C-term NH2 cap; AcK at 2; Dap at 11 carrying the 0P linker) [Compound 55 (T): targeting peptide plus 0P linker] | 598
* QKYQPLDELDXTLYDQFMLQQG (not fully specified; N-term acyl cap; C-term NH2 cap; 0P linker on K11) [Compound 27 (T): targeting peptide plus 0P linker] | 29
* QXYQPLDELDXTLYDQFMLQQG (not fully specified; N-term amido 2-PEG cap; C-term NH2 cap; AcK at 2; 0P linker on K11) [Compound 52 (T): targeting peptide plus 0P linker] | 134

Value source: patent US20080166364A1
